- system.under.test: human GlyT1c transporter (Homo sapiens (Human), UniProt P48067)
- Sequence (P48067 whole entry): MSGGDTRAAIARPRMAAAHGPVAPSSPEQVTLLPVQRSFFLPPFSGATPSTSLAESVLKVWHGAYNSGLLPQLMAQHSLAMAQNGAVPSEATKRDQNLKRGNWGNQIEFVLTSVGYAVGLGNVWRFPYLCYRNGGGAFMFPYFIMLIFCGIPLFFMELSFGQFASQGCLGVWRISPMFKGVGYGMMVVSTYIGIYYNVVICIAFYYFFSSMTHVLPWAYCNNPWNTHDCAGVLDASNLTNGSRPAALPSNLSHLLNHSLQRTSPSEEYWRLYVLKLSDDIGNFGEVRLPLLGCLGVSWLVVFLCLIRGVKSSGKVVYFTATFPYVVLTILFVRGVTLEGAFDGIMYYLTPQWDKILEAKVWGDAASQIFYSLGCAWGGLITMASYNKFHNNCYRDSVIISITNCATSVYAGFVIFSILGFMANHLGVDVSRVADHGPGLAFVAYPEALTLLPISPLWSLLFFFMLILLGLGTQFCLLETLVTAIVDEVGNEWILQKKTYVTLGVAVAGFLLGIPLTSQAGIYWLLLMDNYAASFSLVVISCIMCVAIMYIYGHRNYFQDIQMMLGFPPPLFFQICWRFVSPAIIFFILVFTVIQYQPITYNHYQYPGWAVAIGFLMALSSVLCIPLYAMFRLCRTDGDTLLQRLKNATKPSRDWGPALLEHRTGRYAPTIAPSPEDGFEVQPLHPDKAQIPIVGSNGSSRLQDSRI
- experiment.notes: Radioligand binding assay using recombinant CHO cell membranes expressing human GlyT1
- conditions.used: human GlyT1c-expressing CHO cell membranes; read-out: radioligand binding Kiapp
pKi: −log10 of the molar value. Where a name gives a salt, the structure may show the parent alone.
Readings of pKi for the listed molecules
assay.endpoint: pKi

INSERT INTO assay_data (molecule, assay_endpoint, endpoint_value) VALUES
  ('O=S(=O)(CC1CC1)NCc1ccc2c(c1)C(Cc1ccccc1)C(N1CCOCC1)CC2 (stereo not drawn)', 'pKi', '≥ 6.00'),
  ('CNC1CCc2ccc(CNS(=O)(=O)C3CCC3)cc2C1Cc1ccccc1 (single isomer, unassigned; enantiomer 1) [Example 193, hydrochloride]', 'pKi', '≥ 8.00'),
  ('Cn1ccc(S(=O)(=O)NCc2ccc3c(c2)C(Cc2ccccc2)C(N)CC3)n1 (stereo not drawn) [Example 183, hydrochloride]', 'pKi', '≥ 6.00'),
  ('CCOC(=O)NC1CCc2ccc(OCCNS(=O)(=O)c3sc(C)nc3C)cc2C1Cc1cccc(Cl)c1 (stereo not drawn)', 'pKi', '≥ 4.00'),
  ('Cn1cc(S(=O)(=O)NCc2ccc3c(c2)C(Cc2ccccc2)C(N)CC3)c(C(F)(F)F)n1 (stereo not drawn) [Example 182, hydrochloride]', 'pKi', '≥ 7.00'),
  ('CCCS(=O)(=O)N(C)CCCc1ccc2c(c1)C(Cc1ccc(Cl)cc1)C(N)CC2 (stereo not drawn) [Example 234, hydrochloride]', 'pKi', '≥ 7.00');

Each recorded value in this set is attributed to patent US9067871B2.
